Task for the reader: assign each of the following compounds its reported GI50.
# System: Hs-578T
# experiment: NCI tumour cell line growth inhibition, 48 h
Structures can show the parent of a compound that is named as a salt. Calls of active or inactive are those of the source. No stated cut-off is given here; in the data, active = GI50 up to about 1.1 µM and inactive = higher.

# example entries with known answers
compound: O=C(O)c1ccc(P(=O)(O)c2ccc(C(=O)O)cc2Br)c(Br)c1
GI50: > 100 µM (inactive)
--
compound: Oc1ccccc1/C=N/N1C(=S)N(c2ccccc2)C(=N\c2ccccc2)/C1=N/c1ccccc1
GI50: 4.53 µM (inactive)
--
compound: N#CC(C#N)/N=N/c1ccc(-c2nc3ccccc3o2)cc1
GI50: 42 µM (inactive)
--
compound: O=C(NCCNCCCNC(=O)c1cc(-c2ccccc2)nc2ccccc12)c1cccc(O)c1O
GI50: 13.8 µM (inactive)
--
compound: C=CCOc1ccc2c(C)cc(=O)oc2c1C
GI50: 26.9 µM (inactive)
--
compound: COc1ccc(-c2c(CN3CCOCC3)sc3nc4ccccc4n23)cc1
GI50: 21.6 µM (inactive)
--
compound: O=[N+]([O-])c1ccc(/N=N\c2c(O)ccc3ccccc23)c([N+](=O)[O-])c1
GI50: > 100 µM (inactive)
--
compound: CCOC(=O)C(NC(=O)Nc1ccccc1)(Nc1cccc(Cl)c1)C(F)(F)F (configuration not stated)
GI50: 24.3 µM (inactive)
--
compound: Cc1ccc(O)c(-c2cc(-c3cccc(Br)c3)on2)c1
GI50: 44.6 µM (inactive)
--
compound: Cc1cccc(-c2cc(O)c3c(C)cc(C)nc3n2)c1
GI50: 2.52 µM (inactive)

Please supply GI50 for each of the following items, keeping them in order.
1. CCN(CC)CCNc1ccc(C)c2sc3ccccc3c(=O)c12 [LUCANTHONE HYDROCHLORIDE]
2. CC(NC(=O)C(Cc1ccc(OC(=O)c2ccccc2)cc1)NC(=O)OC(C)(C)C)C(=O)NCC(=O)NC(Cc1ccccc1)C(=O)NN (configuration not stated)
3. O=C1CN2CCN(CC2)CC(=O)Nc2ccc(cc2)S(=O)(=O)c2ccc(cc2)NC(=O)CN2CCN(CC2)CC(=O)Nc2ccc(cc2)S(=O)(=O)c2ccc(cc2)N1
4. O=C(/C=C\Nc1ccccc1O)C(F)(F)F

1. 2.15 µM (inactive)
2. 32.7 µM (inactive)
3. > 100 µM (inactive)
4. > 100 µM (inactive)

Please supply GI50 for each of the following items, keeping them in order.
1. COc1nc2ccc(CNc3ccc(C(=O)O)cc3)cc2nc1OC
2. CCC(C)C(N)C(=O)N/N=C\c1c2c(nc3ccccc13)-c1cc3c(c(=O)n1C2)COC(=O)[C@]3(O)CC (some centres not stated)
3. C=C(CN(C)C)C(=O)c1cc(C)ccc1C
4. CCOC(=O)N1CCN(c2c(N)nc(C)nc2O)CC1
5. COc1ccc(-n2c(C)nc3ccc(NC4OCC(OC(C)=O)C(OC(C)=O)C4OC(C)=O)cc3c2=O)cc1 (configuration not stated)
6. CC(C)C1CC(CO)(CNc2nc(N)nc(Cl)c2C=O)C1 (configuration not stated)

> 10 µM (inactive)
1.82 µM (inactive)
28.7 µM (inactive)
> 100 µM (inactive)
> 100 µM (inactive)
4.38 µM (inactive)

====

# Tested on: LXFL 529
# experiment: NCI tumour cell line growth inhibition, 48 h
Activity calls are given as the source filed them. Cut-off read from the data, not from the text of the source: active = GI50 up to about 1.1 µM and inactive = higher.
measured_metric: GI50

# example entries with known answers
molecule: COc1cc(C2c3cc4c(cc3[C@@H](NCCN3CCOCC3)C3COC(=O)[C@H]23)OCO4)cc(OC)c1O (stereo partly specified)
GI50: 11.3 µM (inactive)
//
molecule: CC(=O)NC(ON1C(=O)COc2ccccc21)C(Cl)(Cl)Cl (stereo unspecified)
GI50: > 100 µM (inactive)
//
molecule: CC(Oc1ccc2c(=O)cc(-c3ccccc3)oc2c1)C(=O)O (stereo unspecified)
GI50: > 100 µM (inactive)
//
molecule: Cn1cc(C(=O)NCCC(=N)N)cc1NC(=O)C1=[N+](C)C=C(NC(=O)c2cccc(C(=O)NC3=CC(C(=O)Nc4cc(C(=O)NCCC(=N)N)cn4C)=[N+](C)C3)c2)C1
GI50: > 100 µM (inactive)
//
molecule: CC1(C)OC(COCCOCCCCCO)C(COCCOCCCCCO)O1 (stereo unspecified)
GI50: > 100 µM (inactive)

Consider the additional molecule presented here.
Looking for the measured GI50 of "Cc1ccc(C)c(N2C(=O)C(=O)C(c3nc4ccccc4s3)C(=O)C2=O)c1" , can you help? > 100 µM (inactive)

====

Task for the reader: assign each of the following compounds its reported GI50.
# System: SK-OV-3
# experiment: NCI tumour cell line growth inhibition, 48 h
Activity calls are given as the source filed them. Cut-off read from the data, not from the text of the source: active = GI50 up to about 1.1 µM and inactive = higher.

# example entries with known answers
compound: N#Cc1ccc(CSC2=C(c3ccc(Cl)cc3)S/C(=C3\SC(SCc4ccc(C#N)cc4)=C(c4ccc(Cl)cc4)S3)S2)cc1
GI50: > 100 µM (inactive)

compound: O=C(/C=C\Nc1ccccc1O)C(F)(F)F
GI50: 49.1 µM (inactive)

compound: [N-]=[N+]=Nc1c(Cl)c(=O)n(-c2ccccc2)c2ccccc12
GI50: 37.2 µM (inactive)

compound: CN(C)C(c1ccccc1)C(O)c1ccccc1 (stereo not drawn)
GI50: > 100 µM (inactive)

compound: Oc1ccccc1/C=N/N1C(=S)N(c2ccccc2)C(=N\c2ccccc2)/C1=N/c1ccccc1
GI50: 13.9 µM (inactive)

compound: CSc1nc(-c2ccccc2)nc(N2CCOCC2)[s+]1
GI50: > 100 µM (inactive)

compound: NC(=S)N1N=C2c3ccccc3CC[C@H]2[C@@H]1c1ccc(Cl)cc1
GI50: 36.9 µM (inactive)

Consider the additional compound presented here.
Looking for the measured GI50 of OC(c1ccccc1)c1c(-c2ccccc2)[nH]c(-c2ccccc2)c1C(O)c1ccccc1 (stereo not drawn) , can you help? 4.25 µM (inactive)

====

# System: NCI-H522
# experiment: NCI tumour cell line growth inhibition, 48 h
Calls of active or inactive are those of the source. Rule as the data show it: active = GI50 up to about 1.1 µM and inactive = higher. *1 amine or outer side, *2 acyl side, *3 side chain or, on linkers, in order; H or OH if unused. Where a SMILES comes first, the peptide text is derived from it. Bridges are numbered along the chain shown (N, C = ends). [ ]: non-standard residue; d: D form. ξ: configuration not given here. X10 = CCC(C)C(N[*:1])C(O)CC(=O)O[C@H](C(=O)C(C)C(=O)[*:2])C(C)C; NMeY = CN[C@@H](Cc1ccc(O)cc1)C(=O)O; ξNMeL = CNC(CC(C)C)C(=O)O; ξT = CC(O)C(N)C(=O)O
Outcomes you can answer with include only these: 1.0 for active, 0.0 for inactive

compound: CC(=O)/C=N/CC(=O)O
measured_target: NCI-H522
label_class: 0.0
//
compound: CCC(C)C1NC(=O)C(NC(=O)C(CC(C)C)N(C)C(=O)[C@@H]2CCCN2)C(C)OC(=O)[C@H](Cc2ccc(OC)cc2)N(C)C(=O)[C@@H]2CCCN2C(=O)[C@H](CC(C)C)NC(=O)C(C)C(=O)[C@H](C(C)C)OC(=O)CC1O (stereo partly drawn) (H-P[ξNMeL][ξT][X10]LP[NMeY](Me); ester 3-C)
measured_target: NCI-H522
label_class: 1.0

In the following, a different compound is considered.
Field: outcome | Entry: N#CC(C(=O)CCC(=O)Nc1cccc(Cl)c1)c1ccccc1 (stereo not drawn) 0.0

====

Task for the reader: assign each of the following compounds its reported GI50.
# Test system: U-251
# experiment: NCI tumour cell line growth inhibition, 48 h
Calls of active or inactive are those of the source. Rule as the data show it: active = GI50 up to about 1.1 µM and inactive = higher.

# example entries with known answers
compound: N#CC(C#N)/N=N/c1ccc(-c2nc3ccccc3o2)cc1
measured_target: U-251
GI50: 14.3 µM (inactive)
--
compound: Cc1cc(NCCCCCCCNc2cc(C)nc3cc(N)ccc23)c2ccc(N)cc2n1
measured_target: U-251
GI50: 28.1 µM (inactive)
--
compound: O=C(c1ccccc1)n1cc(-c2ccccc2)c2c(=O)nc[nH]c21
measured_target: U-251
GI50: > 100 µM (inactive)
--
compound: N#CC1CCN2N=C(c3ccccc3)SC12c1ccccc1 (stereo not drawn)
measured_target: U-251
GI50: 44 µM (inactive)
--
compound: CN(C)c1ccc(N2C(=S)SC(=N\c3ccccc3)/C2=N/c2ccccc2)cc1
measured_target: U-251
GI50: > 100 µM (inactive)

Please supply GI50 for each of the following items, keeping them in order.
1. CCOc1ccc(NC(=O)CCC(=O)NN)cc1
2. CSc1nc(-c2ccccc2)nc(N2CCOCC2)[s+]1
3. CC(C)=CCC[C@@H](C)c1c2ncc[nH]c-2c(C)c(=O)c1O
4. NC(=S)NN=Cc1ccccc1OCc1cccc(COc2ccccc2C=NNC(N)=S)n1
5. CC(C)C1SCc2nc3ccccc3n21 (stereo not drawn)
6. COC(=O)Cc1c(C2=Nc3ccccc3C2(O)CC(=O)OC)[nH]c2ccccc12 (stereo not drawn)
7. CC1(CC2=C(C(=O)NCCO[Si](C)(C)C(C)(C)C)C3(OCCO3)C2=O)OCCO1
8. COc1ccc(C(=O)/C(Br)=C/C(=O)O)cc1

1. > 100 µM (inactive)
2. 92.7 µM (inactive)
3. 43.6 µM (inactive)
4. 4.55 µM (inactive)
5. 51.4 µM (inactive)
6. 34.5 µM (inactive)
7. > 100 µM (inactive)
8. 15.6 µM (inactive)
